Test system: HCT-8
Assay Comment: Antiproliferative activity against human HCT8 cells at 25 ug/ml after 48 hrs by MTT assay
Assay type: functional
Run Conditions: HCT-8, 48 h
Response key: 1 means inhibition at 25 µg/mL >= 10%; 0 means inhibition at 25 µg/mL < 10%.

| Sample Smiles | Assigned Label |
| --- | --- |
| O=C(O)[C@H](Cc1ccccc1)N1C(=O)c2ccccc2C1=O | 0 |
| COc1cccc2c1C(=O)c1c(O)c3c(c(O)c1C2=O)C[C@@](O)(C(=O)CO)C[C@@H]3O[C@H]1C[C@H](N)[C@H](O)[C@H](C)O1 | 1 |
| O=C(O)[C@H](Cc1c[nH]c2ccccc12)N1C(=O)c2ccccc2C1=O | 1 |
| O=C(O)CN1C(=O)c2ccccc2C1=O | 0 |
| CC[C@H](C)[C@@H](C(=O)O)N1C(=O)c2ccccc2C1=O | 1 |
| CC(C)[C@@H](C(=O)O)N1C(=O)c2ccccc2C1=O | 0 |
